Parameter: Nutsedge, Yellow plant response rating. Scope: all listed entries.
test system: nutsedge, yellow; test: Test C preemergence; assay type: in vivo, Cyperus esculentus; conditions: preemergence, 62 g ai/ha; scale 0 to 100 (0 no effect, 100 complete control), 13 to 15 days
Output: the number by itself.

Previously resolved entries follow.
{"molecule": "CCOc1cc(C(=O)NC(C)C)nn1Cc1ccnc(C(F)(F)F)c1 [Compound 188]", "Nutsedge, Yellow plant response rating": 65}
{"molecule": "CCONC(=O)c1cc(CC)n(Cc2cc(C(F)(F)F)no2)n1 [Compound 125]", "Nutsedge, Yellow plant response rating": 5}
{"molecule": "CCCNC(=O)c1cc(CC)n(Cc2ccnc(OC(F)F)c2)n1 [Compound 132]", "Nutsedge, Yellow plant response rating": 55}

Please turn your attention to the following entry.
Any idea what Nutsedge, Yellow plant response rating was measured for CCOc1cc(C(=O)NC2CC2)nn1Cc1ccnc(C(F)(F)F)c1 [Compound 189] ? 80
